Reported Ki on Adenosine receptor A1 (Cavia porcellus, UniProt P47745) for assorted compounds, compiled from publications.
Sequence (P47745 whole entry): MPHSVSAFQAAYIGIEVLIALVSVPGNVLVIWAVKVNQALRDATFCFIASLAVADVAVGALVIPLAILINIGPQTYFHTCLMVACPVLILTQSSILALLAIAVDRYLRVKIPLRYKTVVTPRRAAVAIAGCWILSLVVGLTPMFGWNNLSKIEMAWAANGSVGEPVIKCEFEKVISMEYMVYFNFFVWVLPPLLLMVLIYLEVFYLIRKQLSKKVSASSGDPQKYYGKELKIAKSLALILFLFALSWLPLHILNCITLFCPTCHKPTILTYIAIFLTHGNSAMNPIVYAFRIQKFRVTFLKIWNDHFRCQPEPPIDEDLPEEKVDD
Label fulfilled when Ki is strictly below 4 µM; at or above that, label not fulfilled.

Below are worked cases with known answers.
compound=CCCn1c(=O)c2[nH]c(C3CCCC3)nc2n(CCC)c1=S category=fulfilled
compound=CCCCn1c(=O)[nH]c2nc[nH]c2c1=O category=fulfilled
compound=CCCn1c(=O)c2[nH]c(C3CCCC3)nc2n(CCc2ccc(N)cc2)c1=O category=fulfilled
compound=CCCn1c(=O)c2[nH]c(-c3ccc(S(=O)(=O)N(C)CCN(C)C)cc3)nc2n(CCC)c1=O category=fulfilled
compound=CCCCn1c(=O)c2nc[nH]c2n(C)c1=O category="not fulfilled"

// next entry
Exam item: Please indicate whether the reported Ki of CCCn1c(=O)[nH]c(=O)c2c1ncn2CC is strictly below 4 µM.
Marked response: not fulfilled
